These data points were gathered from ChEMBL document CHEMBL1629455.

target: Sodium channel protein type 10 subunit alpha (Homo sapiens); assay: Inhibition of human Nav1.8 by VIPR assay
Sequence (Q9Y5Y9 whole entry): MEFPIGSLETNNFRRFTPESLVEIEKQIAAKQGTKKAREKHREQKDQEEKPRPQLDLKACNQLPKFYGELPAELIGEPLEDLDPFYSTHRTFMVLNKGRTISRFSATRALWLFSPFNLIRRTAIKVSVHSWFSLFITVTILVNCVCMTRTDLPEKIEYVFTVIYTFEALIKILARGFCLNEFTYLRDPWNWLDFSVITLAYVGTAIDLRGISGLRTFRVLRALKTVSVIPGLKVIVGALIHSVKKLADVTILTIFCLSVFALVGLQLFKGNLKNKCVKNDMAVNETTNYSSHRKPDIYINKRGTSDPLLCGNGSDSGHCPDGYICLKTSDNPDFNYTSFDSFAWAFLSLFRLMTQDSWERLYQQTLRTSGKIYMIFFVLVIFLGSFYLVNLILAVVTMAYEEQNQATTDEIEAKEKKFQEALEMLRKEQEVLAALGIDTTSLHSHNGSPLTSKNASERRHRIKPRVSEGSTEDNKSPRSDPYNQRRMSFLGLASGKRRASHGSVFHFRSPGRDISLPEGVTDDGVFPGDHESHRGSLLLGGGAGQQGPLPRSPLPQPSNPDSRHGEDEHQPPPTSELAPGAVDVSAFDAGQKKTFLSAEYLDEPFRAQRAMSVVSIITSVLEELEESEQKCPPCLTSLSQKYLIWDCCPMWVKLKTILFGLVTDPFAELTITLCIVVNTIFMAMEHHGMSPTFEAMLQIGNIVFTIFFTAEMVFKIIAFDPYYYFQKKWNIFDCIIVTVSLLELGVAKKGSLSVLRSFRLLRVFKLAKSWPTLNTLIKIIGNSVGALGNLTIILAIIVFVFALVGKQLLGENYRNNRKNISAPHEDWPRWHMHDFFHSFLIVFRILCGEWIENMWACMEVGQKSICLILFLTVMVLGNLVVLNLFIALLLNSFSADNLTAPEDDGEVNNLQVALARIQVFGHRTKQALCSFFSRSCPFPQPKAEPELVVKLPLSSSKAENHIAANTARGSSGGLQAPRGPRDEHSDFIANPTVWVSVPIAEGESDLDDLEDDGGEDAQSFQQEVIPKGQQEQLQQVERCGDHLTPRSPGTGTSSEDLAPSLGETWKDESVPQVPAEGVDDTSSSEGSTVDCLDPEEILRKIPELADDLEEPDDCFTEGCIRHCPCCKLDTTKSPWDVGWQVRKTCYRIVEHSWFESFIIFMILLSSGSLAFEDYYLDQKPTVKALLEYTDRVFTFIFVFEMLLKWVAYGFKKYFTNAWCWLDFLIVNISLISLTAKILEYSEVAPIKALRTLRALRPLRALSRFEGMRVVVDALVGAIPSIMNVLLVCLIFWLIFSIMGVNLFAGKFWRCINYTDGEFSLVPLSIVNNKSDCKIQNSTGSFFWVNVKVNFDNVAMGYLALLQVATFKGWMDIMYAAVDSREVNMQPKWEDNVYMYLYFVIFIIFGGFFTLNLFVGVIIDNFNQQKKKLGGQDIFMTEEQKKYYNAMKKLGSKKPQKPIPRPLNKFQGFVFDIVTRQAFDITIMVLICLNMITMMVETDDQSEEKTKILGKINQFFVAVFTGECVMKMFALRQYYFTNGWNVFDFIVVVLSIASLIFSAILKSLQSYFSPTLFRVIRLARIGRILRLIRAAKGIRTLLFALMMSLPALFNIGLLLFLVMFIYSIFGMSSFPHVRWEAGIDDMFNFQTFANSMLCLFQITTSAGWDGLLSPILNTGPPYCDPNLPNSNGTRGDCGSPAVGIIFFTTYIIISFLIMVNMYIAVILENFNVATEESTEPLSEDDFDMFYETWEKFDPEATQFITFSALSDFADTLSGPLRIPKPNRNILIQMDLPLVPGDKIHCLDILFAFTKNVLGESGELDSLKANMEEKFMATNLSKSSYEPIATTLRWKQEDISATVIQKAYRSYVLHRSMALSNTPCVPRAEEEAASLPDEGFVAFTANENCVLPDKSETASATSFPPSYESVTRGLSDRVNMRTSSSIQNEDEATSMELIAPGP
The entries below come with measured pIC50 values attached.
In textbook form, pIC50 equals minus log to base ten of the concentration in mol/L.

Example compounds with recorded pIC50:
NC(=O)c1cc(C(N)=O)n(-c2cccc(-c3ccccc3OC(F)(F)F)c2)n1 | 6.26
NC(=O)c1cc(C(N)=O)n(-c2cccc(-c3cc(F)ccc3OCC(F)(F)C(F)(F)F)c2)n1 | 6.83
NC(=O)c1cc(C(N)=O)n(-c2cccc(-c3cc(C(F)(F)F)ccc3OC(F)(F)F)c2)n1 | 5.93

Look up pIC50 for this compound: NC(=O)c1cc(C(N)=O)n(-c2cccc(-c3cc(C(F)(F)F)ccc3C(F)(F)F)c2)n1
5.70

Look up pIC50 for this compound: NC(=O)c1cc(C(N)=O)n(-c2cccc(-c3cccc(OC(F)(F)F)c3OCC(F)(F)C(F)(F)F)c2)n1
6.69

Look up pIC50 for this compound: NC(=O)c1cc(C(N)=O)n(-c2cccc(-c3cccc(C(F)(F)F)c3OCC(F)(F)C(F)(F)F)c2)n1
6.52

* * *

assay: AUC in dog at 60 mg/kg, po; assay type: ADME, organism-based, Canis lupus familiaris; design: dose 60 mg/kg, route oral; conditions: plasma
REPORTED_ENDPOINT: AUC (µM·h)
State the answer as a number, implicitly in µM·h.

Look up AUC for this compound: NC(=O)c1cc(C(N)=O)n(-c2cccc(-c3cc(C(F)(F)F)ccc3C(F)(F)F)c2)n1
650

* * *

test system: Plasma; assay: Plasma concentration in dog at 3 mg/kg, iv; type: ADME, organism-based, Canis lupus familiaris; design: dose 3 mg/kg, route intravenous; details: in vivo
REPORTED_ENDPOINT: concentration (µM)
State the answer as a number, implicitly in µM.

Look up concentration for this compound: NC(=O)c1cc(C(N)=O)n(-c2cccc(-c3cc(C(F)(F)F)ccc3C(F)(F)F)c2)n1
16.2

* * *

target: hERG (KCNH2) (Homo sapiens); assay: Inhibition of human ERG at 30 uM by electrophysiology assay
Sequence (Q12809 whole entry): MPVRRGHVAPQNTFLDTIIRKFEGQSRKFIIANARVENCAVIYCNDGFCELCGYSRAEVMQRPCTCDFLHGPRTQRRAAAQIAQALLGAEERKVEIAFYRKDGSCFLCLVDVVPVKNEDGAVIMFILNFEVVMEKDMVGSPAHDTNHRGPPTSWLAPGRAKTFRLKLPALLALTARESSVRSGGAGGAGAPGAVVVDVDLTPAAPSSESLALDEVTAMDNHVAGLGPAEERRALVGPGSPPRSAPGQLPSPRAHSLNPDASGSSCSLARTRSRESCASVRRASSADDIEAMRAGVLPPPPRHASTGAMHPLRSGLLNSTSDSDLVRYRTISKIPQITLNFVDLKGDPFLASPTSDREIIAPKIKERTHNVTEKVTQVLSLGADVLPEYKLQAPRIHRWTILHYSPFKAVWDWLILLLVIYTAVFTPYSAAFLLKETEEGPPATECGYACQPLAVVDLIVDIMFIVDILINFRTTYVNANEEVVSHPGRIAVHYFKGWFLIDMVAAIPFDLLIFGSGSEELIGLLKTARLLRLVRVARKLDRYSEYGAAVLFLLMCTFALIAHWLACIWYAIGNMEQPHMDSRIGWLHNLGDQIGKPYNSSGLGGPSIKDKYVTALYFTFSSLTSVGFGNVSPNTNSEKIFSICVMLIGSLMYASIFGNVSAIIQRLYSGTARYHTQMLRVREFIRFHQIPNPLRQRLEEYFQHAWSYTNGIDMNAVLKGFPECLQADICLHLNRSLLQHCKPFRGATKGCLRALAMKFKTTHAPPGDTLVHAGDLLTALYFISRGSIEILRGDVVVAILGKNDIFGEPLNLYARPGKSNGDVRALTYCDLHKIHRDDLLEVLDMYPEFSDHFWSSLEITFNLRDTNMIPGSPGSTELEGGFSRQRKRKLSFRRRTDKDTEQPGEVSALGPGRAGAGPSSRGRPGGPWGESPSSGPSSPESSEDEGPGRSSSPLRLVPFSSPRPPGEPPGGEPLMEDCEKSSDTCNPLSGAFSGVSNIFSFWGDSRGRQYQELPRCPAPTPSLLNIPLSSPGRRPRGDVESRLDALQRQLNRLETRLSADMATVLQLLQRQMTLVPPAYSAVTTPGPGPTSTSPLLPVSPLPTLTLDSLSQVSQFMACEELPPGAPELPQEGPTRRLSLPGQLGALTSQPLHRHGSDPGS
REPORTED_ENDPOINT: inhibition at 30 µM (%)
State the answer as a number, implicitly in %.

Could you share what inhibition at 30 µM was measured for NC(=O)c1cc(C(N)=O)n(-c2cccc(-c3cc(C(F)(F)F)ccc3C(F)(F)F)c2)n1 , tested on hERG (KCNH2) (Homo sapiens)?
15

* * *

experiment: AUC in rat at 3 mg/kg, po; format: ADME, organism-based; design: dose 3 mg/kg, route oral; details: plasma
REPORTED_ENDPOINT: AUC (µM·h)
State the answer as a number, implicitly in µM·h.

Look up AUC for this molecule: NC(=O)c1cc(C(N)=O)n(-c2cccc(-c3cc(C(F)(F)F)ccc3C(F)(F)F)c2)n1
5.6

* * *

molecular target: Nuclear receptor subfamily 1 group I member 2 (Homo sapiens, UniProt O75469)
Sequence (O75469 whole entry): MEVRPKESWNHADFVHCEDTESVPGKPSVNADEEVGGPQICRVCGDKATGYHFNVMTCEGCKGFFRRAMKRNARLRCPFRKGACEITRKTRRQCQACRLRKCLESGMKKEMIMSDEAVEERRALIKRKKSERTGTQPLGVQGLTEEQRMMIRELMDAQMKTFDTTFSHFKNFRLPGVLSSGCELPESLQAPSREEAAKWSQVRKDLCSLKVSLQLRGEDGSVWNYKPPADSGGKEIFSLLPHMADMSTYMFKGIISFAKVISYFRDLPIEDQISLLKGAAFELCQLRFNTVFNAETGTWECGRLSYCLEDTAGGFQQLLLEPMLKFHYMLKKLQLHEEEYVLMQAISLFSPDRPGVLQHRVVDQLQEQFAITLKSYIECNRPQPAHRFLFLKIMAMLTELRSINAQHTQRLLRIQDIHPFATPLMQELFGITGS
pIC50: −log10 of the molar value.
REPORTED_ENDPOINT: pIC50

Could you share what pIC50 was measured for NC(=O)c1cc(C(N)=O)n(-c2cccc(-c3cc(C(F)(F)F)ccc3C(F)(F)F)c2)n1 , tested on Nuclear receptor subfamily 1 group I member 2 (Homo sapiens, UniProt O75469)?
< 4.60
